src = patent US10233182B2

Counter-ions that a name gives are not always drawn.
Here we list compounds with their recorded IC50 when tested on Autotaxin (Homo sapiens (Human)).

CC(C)[C@@H](NC(=O)c1cc(C(F)(F)F)ccc1F)C(=O)N1CCC2(CC1)C(=O)N(C)C(=O)N2c1ccc(OC(F)(F)F)cc1	< 500 nM
CCc1ccc(F)c(C(=O)N[C@@H](C(=O)N2CCC3(CC2)C(=O)N(C)C(=O)N3c2ccccc2)[C@H](C)OC)c1	< 500 nM
CC(C)[C@@H](NC(=O)c1cc(C(F)(F)F)ccc1F)C(=O)N1CCC2(CC1)C(=O)N(C)C(=O)N2c1ccc(S(C)(=O)=O)cc1	500 to 1000 nM
Cc1cccc(C(=O)N[C@@H](C(=O)N2CCC3(CC2)C(=O)N(C)CN3c2ccccc2)C2CCCCC2)n1 [Example 131, trifluoroacetic Acid Salt]	< 500 nM
CC(C)[C@@H](NC(=O)c1cc(C(F)(F)F)ccc1F)C(=O)N1CCC2(CC1)C(=O)N(C)C(=O)N2c1ccc2c(c1)OCO2	< 500 nM

If you can, please state the reported IC50 value of `CC(C)[C@@H](NC(=O)c1cc(C(F)(F)F)ccc1F)C(=O)N1CCC2(CC1)C(=O)N(C)[C@H](C)N2c1ccc(C(=O)O)cc1` .
< 500 nM

// returns reported IC50 for input `CN1C(=O)N(Cc2ccc3nccnc3c2)C2(CCN(C(=O)[C@H](NC(=O)c3cc(C(F)(F)F)ccc3F)C3CCCC3)CC2)C1=O`
< 500 nM

Given the entry `CC(C)[C@@H](NC(=O)c1cc(C(F)(F)F)ccc1F)C(=O)N1CCC2(CC1)C(=O)N(C)C(=O)N2c1ccn(C)n1` , report its measured IC50.
≥ 1000 nM

Consider the compound shown here: `COc1ccc(CN2C(=O)N(C)C(=O)C23CCN(C(=O)[C@H](NC(=O)c2cc(C(F)(F)F)ccc2F)C(C)C)CC3)c(Cl)c1` What is its recorded IC50?
< 500 nM

IC50 for `CN1C(=O)N(c2ccc3[nH]ncc3c2)C2(CCN(C(=O)[C@H](NC(=O)c3cc(C(F)(F)F)ccc3F)C3CCC3)CC2)C1=O` ?
< 500 nM

May I ask what IC50 has been recorded for `CCc1ccc(F)c(C(=O)N[C@@H](C(=O)N2CCC3(CC2)C(=O)N(C)CN3c2ccc3[nH]ncc3c2)C(C)C)c1` ?
< 500 nM

Endpoint output: IC50 of `Cc1cccc(C(=O)N[C@@H](C(=O)N2CCC3(CC2)C(=O)N(C)C(=O)N3c2ccccc2)C(C)C)c1F` . Value?
500 to 1000 nM

Reported IC50 for `Cc1cccc(C(=O)N[C@@H](C(=O)N2CCC3(CC2)COC(=O)N3c2ccccc2)C(C)C)c1` : what is it?
≥ 1000 nM

---

Reported IC50 values, Autotaxin (Homo sapiens (Human)).
Counter-ions that a name gives are not always drawn.

Use these answered entries as a reference point.
CC(C)[C@@H](NC(=O)c1cc(C(F)(F)F)ccc1F)C(=O)N1CCC2(CC1)C(=O)N(C)CN2c1ccc(=O)n(C)c1	< 500 nM
COc1cc(N2CN(C)C(=O)C23CCN(C(=O)[C@H](NC(=O)c2cc(C(F)(F)F)ccc2F)C(C)C)CC3)ccc1C(=O)O	< 500 nM
CC(C)[C@@H](NC(=O)c1cccc(C(F)(F)F)c1)C(=O)N1CCC2(CC1)C(=O)N(C)C(=O)N2c1ccccc1	500 to 1000 nM
CC(C)[C@@H](NC(=O)c1cc(C(F)(F)F)ccc1F)C(=O)N1CCC2(CC1)C(=O)N(CCN(C)C)C(=O)N2c1ccc(C(=O)O)cc1 [Example 237, trifluoroacetic Acid Salt]	< 500 nM
CC(C)[C@@H](NC(=O)c1cc(C(F)(F)F)ccc1F)C(=O)N1CCC2(CC1)C(=O)N(C)C(=O)N2c1ccc2oc(=O)n(C)c2c1	≥ 1000 nM
CC(C)[C@@H](NC(=O)c1cc(C(F)(F)F)ccc1F)C(=O)N1CCC2(CC1)C(=O)N(C)C(=O)N2c1cnc2[nH]ccc2c1	< 500 nM
CC(C)[C@@H](NC(=O)c1cc(C(F)(F)F)ccc1F)C(=O)N1CCC2(CC1)C(=O)N(C)C(=O)N2C1CCOCC1	500 to 1000 nM
CC(C)[C@@H](NC(=O)c1cc(OC(F)F)ccc1F)C(=O)N1CCC2(CC1)C(=O)N(C)C(=O)N2c1ccc(C(=O)O)cc1	< 500 nM
CC(C)[C@@H](NC(=O)c1cc(OC(F)(F)F)ccc1F)C(=O)N1CCC2(CC1)C(=O)N(C)C(=O)N2c1ccc(-c2nn[nH]n2)cc1	< 500 nM
CC(C)[C@@H](NC(=O)c1cc(C(F)(F)F)ccc1F)C(=O)N1CCC2(CC1)C(=O)N(C)C(=O)N2c1ccncc1	< 500 nM

Now, please, on to the next compound.
Which measured IC50 belongs to `CC(C)[C@@H](NC(=O)c1cc(C2CC2)ccc1F)C(=O)N1CCC2(CC1)C(=O)N(C)C(=O)N2c1ccccc1` , tested on Autotaxin (Homo sapiens (Human))?
< 500 nM

---

Entries with reported IC50 on Autotaxin (Homo sapiens (Human))
Where a name gives a salt, the structure may show the parent alone.

Take a look at these entries with their results.
CC(C)[C@@H](NC(=O)c1cc(OC(F)(F)F)ccc1F)C(=O)N1CCC2(CC1)C(=O)N(C)C(=O)N2c1ccc2[nH]ncc2c1	< 500 nM
CC(C)[C@@H](NC(=O)c1cc(C(F)(F)F)ccc1F)C(=O)N1CCC2(CC1)C(=O)N(C)C(=O)N2Cc1cccc(S(C)(=O)=O)c1	500 to 1000 nM
COc1ccc(N2C(=O)N(C)C(=O)C23CCN(C(=O)[C@H](NC(=O)c2cc(C4CC4)ccc2F)[C@@H](C)OC)CC3)cc1	< 500 nM
CC(C)[C@@H](NC(=O)c1cc(C(F)(F)F)ccc1F)C(=O)N1CCC2(CC1)C(=O)N(C)CN2c1ccc2[nH]ncc2c1	< 500 nM

Hello, I am looking for reported IC50 with Autotaxin (Homo sapiens (Human)) for `Cc1cccc(C(=O)N[C@@H](C(=O)N2CCC3(CC2)C(=O)N(CCCS(C)(=O)=O)CN3c2ccccc2)C(C)C)c1F` . Could you help?
< 500 nM

Missing value: IC50, Autotaxin (Homo sapiens (Human)), entry CC(C)[C@@H](NC(=O)c1cc(C(F)(F)F)ccc1F)C(=O)N1CCC2(CC1)C(=O)N(C)C(=O)N2c1ccc(OCC2CNC2)cc1 [Example 81, trifluoroacetic Acid Salt] . Fill in?
≥ 1000 nM

Given the entry `CN1C(=O)N(c2ccc(=O)n(C)c2)C2(CCN(C(=O)[C@H](NC(=O)c3cc(C(F)(F)F)ccc3F)C3CCCC3)CC2)C1=O` , what IC50 was observed with Autotaxin (Homo sapiens (Human))?
< 500 nM

Test system Autotaxin (Homo sapiens (Human)); read-out IC50; what value for `CO[C@@H](C)[C@@H](NC(=O)c1cccc(C)c1)C(=O)N1CCC2(CC1)C(=O)N(C)CN2c1ccccc1` ?
< 500 nM

GET /values?readout=IC50&system=Autotaxin (Homo sapiens (Human))&item= `CC(C)[C@@H](NC(=O)c1cc(C2CC2)ccc1F)C(=O)N1CCC2(CC1)C(=O)N(C)C(=O)N2c1ccc2[nH]ncc2c1`
< 500 nM

Return IC50 measured with Autotaxin (Homo sapiens (Human)) given this compound: `COC(=O)c1ccc(N2C(=O)N(C)C(=O)C23CCN(C(=O)[C@H](NC(=O)c2cc(C(F)(F)F)ccc2F)C(C)C)CC3)cc1`
< 500 nM

For Autotaxin (Homo sapiens (Human)), provide IC50 of `CC[C@@H](C)[C@@H](NC(=O)c1cc(C)cc(F)c1)C(=O)N1CCC2(CC1)C(=O)N(C)C(=O)N2c1ccc(OC)cc1` please.
< 500 nM

What IC50 appears in the records for this compound with Autotaxin (Homo sapiens (Human))? `Cc1cccc(C(=O)N[C@@H](C(=O)N2CCC3(CC2)C(=O)N(C)CN3c2ccccc2Cl)C(C)C)c1`
< 500 nM

What IC50 appears in the records for this compound with Autotaxin (Homo sapiens (Human))? `CC(C)[C@@H](NC(=O)c1cc(C(F)(F)F)ccc1F)C(=O)N1CCC2(CC1)C(=O)N(C)C(=O)N2c1ccccn1`
500 to 1000 nM

State its IC50 on Autotaxin (Homo sapiens (Human)): `CCc1ccc(F)c(C(=O)N[C@@H](C(=O)N2CCC3(CC2)C(=O)N(C)CN3c2ccc(S(C)(=O)=O)cc2)C(C)C)c1`
< 500 nM

---

Reported IC50 values for a set of compounds
testSystem: Autotaxin (Homo sapiens (Human), UniProt Q13822)
Counter-ions that a name gives are not always drawn.

Below, each entry is followed by its recorded IC50 result.
CC(C)[C@@H](NC(=O)c1cc(C(F)(F)F)ccc1F)C(=O)N1CCC2(CC1)C(=O)N(C)C(=O)N2c1ccc2oc(=O)[nH]c2c1	500 to 1000 nM
CC(C)[C@@H](NC(=O)c1ccccc1)C(=O)N1CCC2(CC1)C(=O)N(C)C(=O)N2c1ccc2[nH]ncc2c1	≥ 1000 nM
CC(C)[C@@H](NC(=O)c1cc(C(F)(F)F)ccc1F)C(=O)N1CCC2(CC1)C(=O)N(C)C(=O)N2c1ccc2nn(C)cc2c1	< 500 nM
CCc1ccc(F)c(C(=O)N[C@@H](C(=O)N2CCC3(CC2)C(=O)N(C)C(=O)N3c2ccc(OC)cc2)[C@@H](C)OC)c1	< 500 nM
CC(C)[C@@H](NC(=O)c1cc(C(F)(F)F)ccc1F)C(=O)N1CCC2(CC1)C(=O)N(C)C(=O)N2c1ccc(Cl)c(Cl)c1	< 500 nM

Shift focus to the following entry.
State the recorded IC50 for this entry: CC(C)[C@@H](NC(=O)c1cc(C(F)(F)F)ccc1F)C(=O)N1CCC2(CC1)C(=O)N(CCN(C)C)CN2c1ccc(C(=O)O)cc1 [Example 238, trifluoroacetic Acid Salt]
< 500 nM
